These entries and their values trace back to patent US20230286983A1.

Experiment: Pharmacokinetic study, 4ET-01-021 with IV and PO dosing
Assay type: in vivo, CD-1 male mice
Conditions: male, CD-1, mouse, plasma, po, 3 mg/kg, oral 3 mg/kg; read-out: total systemic exposure (AUCinf)
Protocol: 4ET-01-021 was dissolved in 10% dimethylacetamide (DMA)/90% propylene glycol (PG) for oral dosing and 10% DMI (dimethyl isosorbide)/15% EtOH (ethanol)/35% PG (propylene glycol)/40% NS (normal saline) for IV dosing. CD-1 male mice were dosed with 4ET-01-021 at 1.0 mg/kg (IV), 3.0 mg/kg (PO), or 10.0 mg/kg (PO). Plasma was collected at indicated timepoints and plasma concentration of 4ET-01-021 was measured using liquid chromatography-mass spectrometry/mass spectrometry (LC-MS/MS). […]
property: AUC(0-inf) (ng·h/mL)

>>> print(df.to_string())
                                   compound  observed_value
0  CCC1=CC2(CCC1)NC(=O)c1c(C)cc(Nc3cc(N)ncn3)c(=O)n12 (stereo not shown) [Compound 4ET-01-021]            4500
